This collection of values is drawn from the supplement of paper PMC7125110.

B1: glmS ribozyme (parent)
chain: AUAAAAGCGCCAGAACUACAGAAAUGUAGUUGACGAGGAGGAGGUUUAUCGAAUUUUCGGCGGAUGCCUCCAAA

Variants of: B1
Assay: self-cleavage kobs at 640 uM GlcN6P; higher = faster cleavage; RNA array
Details: with glucosamine-6-phosphate
Fewer inactive variants are shown than the library holds.
Assay readout: self-cleavage kobs at 640 uM GlcN6P (s⁻¹)

biosequence="AUAAAAGCGCCAGAUCUACAGAAAUGUAGUUGACGAGGAGGAGUUUGAUCGAAUUUUCGGCGGAUGGCUCCAAA [A15U G44U U47G C67G]" assay_readout="self-cleavage kobs at 640 uM GlcN6P" units_symbol=s⁻¹ qualifier_sign== assay_value=0.000193
biosequence="AUAAAAGCGCCAGAACUACAGAAAUGUAGUUGACGAGGGCGAGGUUUAUCGAAUUUUCGGCGGAUGCCUCCAAA [A39G G40C]" assay_readout="self-cleavage kobs at 640 uM GlcN6P" units_symbol=s⁻¹ qualifier_sign== assay_value=4.2e-05
biosequence="AUAAAAGCGCCUGAACUACAGAAAUGUAAUCGACGAGGAGGAGGUUUAUCGAAUUUUCGGCGGAUGCCUCCAAA [A12U G29A U31C]" assay_readout="self-cleavage kobs at 640 uM GlcN6P" units_symbol=s⁻¹ qualifier_sign== assay_value=0.000169
biosequence="AUAAAAGCGCCAGAACUACAGAAAUGUAGUUGACGAGGAGCAGGUUUAUCGAAUUUUCGGCGCUUGCCUCCAAA [G41C G63C A64U]" assay_readout="self-cleavage kobs at 640 uM GlcN6P" units_symbol=s⁻¹ qualifier_sign=< assay_value=1e-05
biosequence="AUAAAAGCGCCAGAACUACAGAAAUGUAGUUGACGAGGAGGAGGUUUAUCGAAUUUUCGGCGGAUGUUUCCAAA [C67U C68U]" assay_readout="self-cleavage kobs at 640 uM GlcN6P" units_symbol=s⁻¹ qualifier_sign== assay_value=7.85e-05
biosequence="AUAAAAGCGCCAGACCUACAGAAAUGUAGUUGACGAGGAGGAGGUUUAUCGAAUUUUCGGCGGAUGCCUACAAA [A15C C70A]" assay_readout="self-cleavage kobs at 640 uM GlcN6P" units_symbol=s⁻¹ qualifier_sign== assay_value=5.56e-05
biosequence="AUAAAAGCGCCAGAACUACAGAAAUGUAGCUGACGGGGAGGAGGUUUAUCGAAUUUCCGGCGGAUGCCUCCAAA [U30C A36G U57C]" assay_readout="self-cleavage kobs at 640 uM GlcN6P" units_symbol=s⁻¹ qualifier_sign=< assay_value=1e-05
biosequence="AUAAAAGUGCCAGCACUACAGAAAUGUAGUUAACGAGGAGGAGGUUUAUCGAAUUUUCGGCGGAUGCCUCCAAA [C8U A14C G32A]" assay_readout="self-cleavage kobs at 640 uM GlcN6P" units_symbol=s⁻¹ qualifier_sign=< assay_value=1e-05
biosequence="AUAAAACCGCCAGAUCUACAGAAAUGUAGUUGACGAGGAGGAGGUUUAUCGAAUUUUCCGCGGAUGCCUCCAAA [G7C A15U G59C]" assay_readout="self-cleavage kobs at 640 uM GlcN6P" units_symbol=s⁻¹ qualifier_sign=< assay_value=1e-05
biosequence="AUAAAAGCGCCAGACCUACAGAAAUGUAUUUGACGAGGAGGAGGUUUAUCGAAUUUUCGGCGGAUGACUCCAAA [A15C G29U C67A]" assay_readout="self-cleavage kobs at 640 uM GlcN6P" units_symbol=s⁻¹ qualifier_sign== assay_value=0.000156
biosequence="AUAAAAGCGCCUGAACUACAGAAAUGUAGUGGACGAGGAGGAGGUUUAUCGAAUUUUCGGCGGAUGCCUCCAAA [A12U U31G]" assay_readout="self-cleavage kobs at 640 uM GlcN6P" units_symbol=s⁻¹ qualifier_sign== assay_value=0.00439
biosequence="AUAAAAGCGCCAGAACUACAGAAAUGUAAUUGACGAGGAGGAGGUUUAUCGCAUUUGCGGCGGGUGCCUCAAAA [G29A A52C U57G A64G C71A]" assay_readout="self-cleavage kobs at 640 uM GlcN6P" units_symbol=s⁻¹ qualifier_sign=< assay_value=1e-05
biosequence="AUAAAAGCGCCAGAUAUACAGAAAUGUAGUUGACGAGGAGGAGGUUUAUCGAAUUUUCGGCGGAUGCCUCUAAA [A15U C16A C71U]" assay_readout="self-cleavage kobs at 640 uM GlcN6P" units_symbol=s⁻¹ qualifier_sign== assay_value=0.000111
biosequence="AUAAAAGCGCCAGAACUACAGAAAUGUAGUUGACGAGGAGGGGGUUUAUCGAAUCUUCGGCGGAUUCCUCCAAA [A42G U55C G66U]" assay_readout="self-cleavage kobs at 640 uM GlcN6P" units_symbol=s⁻¹ qualifier_sign== assay_value=0.000398
biosequence="AUAAAAGCGCCAGAACUACAGAAAUGUAGUUGACGAGGAGGAGGAUUAUCGAAUUUUCGGCGGAUUCCUCCAAA [U45A G66U]" assay_readout="self-cleavage kobs at 640 uM GlcN6P" units_symbol=s⁻¹ qualifier_sign== assay_value=0.000508
biosequence="AUAAAAGCGCCAGAACUACAGAAAUGUAGUUGACGAGGAGGAGGUUGAUAGAAUUUUCGGCGGAUGUCUCCAAA [U47G C50A C67U]" assay_readout="self-cleavage kobs at 640 uM GlcN6P" units_symbol=s⁻¹ qualifier_sign== assay_value=6.02e-05
biosequence="AUAAAAGCGCCAGAACUACAGAAAUGUAGUUGACGCGGAGGAGGUUUACCGAAUUUUCGGCGGAUGCCUCCAAA [A36C U49C]" assay_readout="self-cleavage kobs at 640 uM GlcN6P" units_symbol=s⁻¹ qualifier_sign=< assay_value=1e-05
biosequence="AUAAAAGCCGCAGGACUACAGAAAUGUAGUUGACGAGGAGUAGGUUUAUCGAAUUUUCGGCGGCUGCCUCCAAA [G9C C10G A14G G41U A64C]" assay_readout="self-cleavage kobs at 640 uM GlcN6P" units_symbol=s⁻¹ qualifier_sign=< assay_value=1e-05
biosequence="AUAAAAGCGCCAGAACUACAGAAAUGUAGUUGACGAGGAGGAGGUUUAUCGAUUUUUCGGCGGAUGCGUCCAAA [A53U C68G]" assay_readout="self-cleavage kobs at 640 uM GlcN6P" units_symbol=s⁻¹ qualifier_sign== assay_value=6.63e-05
biosequence="AUAAAAGCGCCAGCACUACAGAAAUGUAGUUGACGAGGAGGAGAUUUAUCGAAUUUUCGGCGGUUGCCUCCAAA [A14C G44A A64U]" assay_readout="self-cleavage kobs at 640 uM GlcN6P" units_symbol=s⁻¹ qualifier_sign=< assay_value=1e-05
biosequence="AUAAAAGCGCCAGAAUUACAGAAAUGUAUUUGACGAGGAGGAGGUUUAUCGAAUUUUCGGCGGAUGCCUCCAAA [C16U G29U]" assay_readout="self-cleavage kobs at 640 uM GlcN6P" units_symbol=s⁻¹ qualifier_sign== assay_value=0.00245
biosequence="AUAAAAGCGCCAGAACUACAGAAAUGUAGUUUACGUGGAGGAGGUUUAUCGAAUUUUCGGCUGAUGCCUCCAAA [G32U A36U G62U]" assay_readout="self-cleavage kobs at 640 uM GlcN6P" units_symbol=s⁻¹ qualifier_sign=< assay_value=1e-05
biosequence="AUAAAAACGCCAGAACUACAGAAAUGUAGUUGACGAGGAUGAGGUUUAUCGAAUUUUUGGCGGAUGCCUCCAAA [G7A G40U C58U]" assay_readout="self-cleavage kobs at 640 uM GlcN6P" units_symbol=s⁻¹ qualifier_sign=< assay_value=1e-05
biosequence="AUAAAAGCACCAGAACUACAGAAAUGUAGUUGACGAGGAGGAGGUUUAUCGUAUUUUCGGCGGAUGCCUCCAAA [G9A A52U]" assay_readout="self-cleavage kobs at 640 uM GlcN6P" units_symbol=s⁻¹ qualifier_sign=< assay_value=1e-05
biosequence="AUAAAAGCGCCAGAACUACAGAAAUGUAGUUUGCGAGAAGGAGGUUUAUCGAAUUUUCGGCGGAUGCCUCCAAA [G32U A33G G38A]" assay_readout="self-cleavage kobs at 640 uM GlcN6P" units_symbol=s⁻¹ qualifier_sign=< assay_value=1e-05
biosequence="AUAAACGCGCCAGAACUACAGAAAUGUAGUUGACGAGGAGGAGGUUCAUCGAAGUUUCGGCGGAUGCCUCCAAA [A6C U47C U54G]" assay_readout="self-cleavage kobs at 640 uM GlcN6P" units_symbol=s⁻¹ qualifier_sign=< assay_value=1e-05
biosequence="AUAAAAGAGCCAGAACUACAGAAAUGUAGUUAACGCGGAGAUGGUUUAUCGAAUUUUCGGCGGAUGCCUCCAAA [C8A G32A A36C G41A A42U]" assay_readout="self-cleavage kobs at 640 uM GlcN6P" units_symbol=s⁻¹ qualifier_sign=< assay_value=1e-05
biosequence="AUAAAAGCGCAGGAACUACAGAAAUGUAGUUGACGAGGAGGAGGUUUAUCGAAUUUUCGGCGGAAGGCUCCAAA [C11A A12G U65A C67G]" assay_readout="self-cleavage kobs at 640 uM GlcN6P" units_symbol=s⁻¹ qualifier_sign== assay_value=0.000193
biosequence="AUAAAAGCGCCAGCUCUACAGAAAUGUAGUUGACGAGGAGGAGGUUUAUCGAAUUUUCGGCGGAUGCCUCCAAA [A14C A15U]" assay_readout="self-cleavage kobs at 640 uM GlcN6P" units_symbol=s⁻¹ qualifier_sign== assay_value=5.17e-05
biosequence="AUAAAAGCGCGAGGACUACAGAAAUGUAGUUGAAGAGGAGUAGGUUUACCGAAUUUUCGGCGGAUGCCUCCAAA [C11G A14G C34A G41U U49C]" assay_readout="self-cleavage kobs at 640 uM GlcN6P" units_symbol=s⁻¹ qualifier_sign=< assay_value=1e-05
biosequence="AUAAAAGCGCCAGAACUACAGAAAUGUAGUUGACGAGGAGGAGGUUAAUCGAAGUUUCGGCGGAUGCCUCCAAA [U47A U54G]" assay_readout="self-cleavage kobs at 640 uM GlcN6P" units_symbol=s⁻¹ qualifier_sign== assay_value=0.0103
biosequence="AUAAAAACGCCAGAACUACAGAAAUGUAGUUGACGAGCAGGAGGUUUAUCGAAUUUUAGGCGGAUGCCUCCAAA [G7A G38C C58A]" assay_readout="self-cleavage kobs at 640 uM GlcN6P" units_symbol=s⁻¹ qualifier_sign=< assay_value=1e-05
biosequence="AUAAAGGCGCCAGAACUACAGAAAUGUAGUUGACGAGGAGGAGGUUCAUCGAAUUUUCGGCGGAUGGCUCCAAA [A6G U47C C67G]" assay_readout="self-cleavage kobs at 640 uM GlcN6P" units_symbol=s⁻¹ qualifier_sign=< assay_value=1e-05
biosequence="AUAAAAGCGCCAGAACUACAGAAAUGUAGUUGACGAGGAGGAGGUUUUUCGAAUGUUCGGCGGAUGCCUCAAAA [A48U U55G C71A]" assay_readout="self-cleavage kobs at 640 uM GlcN6P" units_symbol=s⁻¹ qualifier_sign== assay_value=2.8e-05
biosequence="AUAAAAGCGCCACAACUACAGAAAUGUAGUUGACGAGGAGGAGGUUUAUCGAAUUUUCGACGGAUGCCUCCAAA [G13C G60A]" assay_readout="self-cleavage kobs at 640 uM GlcN6P" units_symbol=s⁻¹ qualifier_sign=< assay_value=1e-05
biosequence="AUAAAAGCGCCAGAACUACAGAAAUGUAGUUGACGAGGAGGAGGUUUAUCGGAUUUUCGGCGGAUGUCUCCAAA [A52G C67U]" assay_readout="self-cleavage kobs at 640 uM GlcN6P" units_symbol=s⁻¹ qualifier_sign== assay_value=0.000166
biosequence="AUAAAAGCGCCAGAACUACAGAAAUGUAGUUGACGAAGAGGAGGUUUAUCGACUUUUCGGCGGAUGCCUCCAAA [G37A A53C]" assay_readout="self-cleavage kobs at 640 uM GlcN6P" units_symbol=s⁻¹ qualifier_sign== assay_value=0.00012
biosequence="AUAAAAGCGCCAGAACUACAGAAAUGUAGUUGACGAGGAGGAGGUCUAUCGAAUUUUCGGCGGAUGCCUCAAAA [U46C C71A]" assay_readout="self-cleavage kobs at 640 uM GlcN6P" units_symbol=s⁻¹ qualifier_sign== assay_value=0.000252
biosequence="AUAAAAGUGCCAGAACUACAGAAAUGUAGUGGAUGAGGAGGAGGUUAAUCGAAUUUUCGGCGGAUGCCUCCAAA [C8U U31G C34U U47A]" assay_readout="self-cleavage kobs at 640 uM GlcN6P" units_symbol=s⁻¹ qualifier_sign=< assay_value=1e-05
biosequence="AUAAAAGCGCAAGAACUACAGAAAUGUAGUUGACGAGGAGGAGGUUUAUCGAAUUUUCGGCGGAUGUCUCCAAA [C11A C67U]" assay_readout="self-cleavage kobs at 640 uM GlcN6P" units_symbol=s⁻¹ qualifier_sign== assay_value=3.1e-05
biosequence="AUAAAAGCGCGAGAACUACAGAAAUGUAGUUGACGAGGAGGAGGUUUAUCGAAUUUUCGGCGGAUACCUCCAAA [C11G G66A]" assay_readout="self-cleavage kobs at 640 uM GlcN6P" units_symbol=s⁻¹ qualifier_sign=< assay_value=1e-05
biosequence="AUAAAAGCGCCAGUACUACAGAAAUGUAGUUGACGAGGAGGAGGUUUAUCGAAUUUUCGGCGGAUGCCUUCAAA [A14U C70U]" assay_readout="self-cleavage kobs at 640 uM GlcN6P" units_symbol=s⁻¹ qualifier_sign== assay_value=0.00104
biosequence="AUAAAAGCGCCAGAACUACAGAAAUGUAGUUGACGAGGAGGAGCUUUAUCGAAUUUUCGGCGGAUGACUCCAAA [G44C C67A]" assay_readout="self-cleavage kobs at 640 uM GlcN6P" units_symbol=s⁻¹ qualifier_sign== assay_value=0.00196
biosequence="AUAAAACCGCCAGAACUACAGAAAUGUAGUUGACGAGGAGGUGGUUUAUCGAAUUUUCGGCGGAUGCCUCCAAA [G7C A42U]" assay_readout="self-cleavage kobs at 640 uM GlcN6P" units_symbol=s⁻¹ qualifier_sign=< assay_value=1e-05
biosequence="AUAAAAGCGCCAGAAUUACAGAAAUGUAGUUGACGAGGGGGUGGUUAAUCGAAUUUUCGGCGGAUGCCUCCAAA [C16U A39G A42U U47A]" assay_readout="self-cleavage kobs at 640 uM GlcN6P" units_symbol=s⁻¹ qualifier_sign== assay_value=5.33e-05
biosequence="AUAAAAGCGCCAGAACUACAGAAAUGUAGUUGACGAGGAGAAGGUUUAUCGAAUUUCCGGCGGAUGCCUCCAAA [G41A U57C]" assay_readout="self-cleavage kobs at 640 uM GlcN6P" units_symbol=s⁻¹ qualifier_sign=< assay_value=1e-05
